I'd be grateful if you could share measured pEC50 for these entries.
# System: Leishmania donovani axenic amastigote parasites
# measurementNotes: Leishmania donovani axenic amastigote proliferation assay
# Format: cell-based
# experimentalParameters: axenic amastigotes in vitro, read-out: L. donovani amastigotes EC50
pEC50: −log10 of the molar value.

Given the entry Cc1cnc2nc(-c3cc(NC(=O)c4cccc(N(C)C)c4)ccc3Cl)[nH]c2c1 [Compound 184] , report its measured pEC50. < 4.60

I'd like to know its pEC50. The compound in question is COc1ccccc1C(=O)Nc1ccc(Cl)c(-c2nc3ncc(C)cc3[nH]2)c1 [Compound 108] < 4.60

Endpoint output: pEC50 of Cc1cnc2nc(-c3cc(NS(=O)(=O)Cc4ccc(C(F)(F)F)cc4)ccc3Cl)[nH]c2c1 [Compound 252] . Value? < 4.60

---

# Test system: Trypanosoma cruzi amastigotes (Tulahuen strain) cultured in 3T3 fibroblast cells
# measurementNotes: Assay for proliferation of kinetoplastid parasite Trypanosoma cruzi
# Type: cell-based
# experimentalParameters: 144 h, Tulahuen amastigotes in 3T3 fibroblast cells, 6 day incubation, read-out: T cruzi EC50
pEC50: −log10 of the molar value.
Answer each item with its documented pEC50.

What value of measured pEC50 is listed for Cc1cnc2nc(-c3cc(NC(=O)N4CCC(N(C)C)C4)ccc3Cl)[nH]c2c1 (stereo not shown) ? < 4.70

Item Cc1cnc2nc(-c3cc(NC(=O)c4cncnc4)ccc3Cl)[nH]c2c1 has what recorded pEC50? < 4.94

What does the data say about its pEC50? Entry: CCN(CC)CCCCCCNC(=O)Nc1ccc(Cl)c(-c2nc3ncc(C)cc3[nH]2)c1 < 4.70

Which pEC50 value belongs to CNC(=O)Nc1ccc(Cl)c(-c2nc3ncc(C)cc3[nH]2)c1 ? < 4.70

// query pEC50 value for entry Cc1cnc2nc(-c3cc(NC(=O)N(C)C4CCCC4)ccc3Cl)[nH]c2c1 < 4.70

GET /values?readout=pEC50&item= Cc1cnc2nc(-c3cc(NC(=O)c4nccnc4O)ccc3Cl)[nH]c2c1 < 4.70

Given the compound Cc1cnc2nc(-c3cc(NC(=O)c4cnc[nH]4)ccc3Cl)[nH]c2c1 , what is its reported pEC50? < 4.70

What does the data say about its pEC50? Entry: Cc1cnc2nc(-c3cc(NC(=O)c4ccc(Cl)s4)ccc3Cl)[nH]c2c1 < 4.94

Can you share its pEC50? I mean this compound: O=C(Nc1ccc(Cl)c(-c2nc3ncc(Br)cc3[nH]2)c1)C1CCCC1 6.07

Could you tell me which pEC50 is on file for Cc1cnc2nc(-c3cc(NC(=O)N4CC5CC5C4)ccc3Cl)[nH]c2c1 (stereo not shown) ? 5.44

Endpoint output: pEC50 of O=C(Nc1ccc(Cl)c(-c2nc3ncc(C4=CCNCC4)cc3[nH]2)c1)c1ccco1 . Value? 6.31

pEC50 for Cc1cnc2nc(-c3cc(NC(=O)NCCCCCCN(C)C)ccc3Cl)[nH]c2c1 ? < 4.70

Bench note: what pEC50 did Cc1cnc2nc(-c3cc(NC(=O)c4cccc(N5CCCCC5)c4)ccc3Cl)[nH]c2c1 show? 5.26
